- experiment: qHTS assay for identifying genotoxic compounds that show differential cytotoxicity against isogenic chicken DT40 cell lines with known DNA damage response pathways - Rev3 mutant cell line (AID 743014); also: nearly all actives have a fitted effect of over 55% in size; also: potency is read from the fitted curve at half-maximal effect
- conditionInfo: chicken DT40 Rev3-/- viability, CellTiter-Glo, 40 h; series mostly up to 68.4 µM
Results filed as inconclusive are left out. The source made the active and inactive calls. Calls follow the shape of the dose curve; as a rule, active = well fitted cell-killing curve with a large enough effect in the repeat runs; inconclusive = weak or mixed curves, or effect the other way; inactive = no such curve, though single readings can be large or run the other way.
readoutName: Potency

These solved cases illustrate the format of a correct answer.
INSERT INTO measurements (compound, readoutname, readoutvalue) VALUES
  ('C=CCc1ccc(OC)cc1', 'Potency', '26.5 µM (active)'),
  ('CCCCC(CC)COC(=O)c1ccc(C(=O)OCC(CC)CCCC)c(C(=O)OCC(CC)CCCC)c1 (stereo not drawn)', 'Potency', 'inactive'),
  ('CCOc1cc(C=O)ccc1O', 'Potency', 'inactive'),
  ('Nc1ccncc1', 'Potency', 'inactive'),
  ('CCOc1cc(Oc2ccc(C(F)(F)F)cc2Cl)ccc1[N+](=O)[O-]', 'Potency', 'inactive');

Endpoint output: Potency of CNC(=O)N(C)c1nnc(C(C)(C)C)s1 . Value?
inactive

Endpoint output: Potency of CCCCCc1cc(O)cc(O)c1 . Value?
inactive

Endpoint output: Potency of CCOC(=O)C(C)OC(=O)c1cc(Oc2ccc(C(F)(F)F)cc2Cl)ccc1[N+](=O)[O-] (stereo not drawn) . Value?
27.3 µM (active)

* * *

- experiment: qHTS assay to identify small molecule antagonists of the androgen receptor (AR) signaling pathway using the MDA cell line - cell viability counter screen (AID 743041; also: nearly all actives have a fitted effect of over 45% in size)
- conditionInfo: MDA-kb2 viability, CellTiter-Fluor, 16 h, cells co-treated with R1881 androgen agonist; series mostly up to 70.3 µM
Inconclusive results are not listed. Activity calls are given as the source filed them. The call rests on the fitted dose curve; in most records, active means well fitted cell-killing curve with a large enough effect in the repeat runs; inconclusive means weak or mixed curves, or effect the other way; inactive means flat fitted curve, though single readings scatter.
Please state which outcome applies, choosing from class 1 (active), class 0 (inactive)

What outcome does the record of this test show for CCC(C)(c1ccc(O)cc1)c1ccc(O)cc1 ?
class 0

What outcome does the record of this test show for CCCCCc1cc(O)cc(O)c1 ?
class 0

What outcome does the record of this test show for CCC(C)c1ccc(O)cc1 (stereo not drawn) ?
class 0

What outcome does the record of this test show for CC(C)=CC1C(C(=O)OCc2coc(Cc3ccccc3)c2)C1(C)C (stereo not drawn) ?
class 0

What outcome does the record of this test show for COc1ccc(C(CN(C)C)C2(O)CCCCC2)cc1 (stereo not drawn) ?
class 0

What outcome does the record of this test show for Cc1cc(C)cc(C)c1 ?
class 0

* * *

- experiment: qHTS assay to identify small molecule antagonists of the estrogen receptor beta (ER-beta) signaling pathway - cell viability counter screen (AID 1259382); also: nearly all actives have a fitted effect of over 55% in size
- conditionInfo: ER-beta-UAS-bla HEK293T viability, CellTiter-Glo luminescence, 16 h; series mostly up to 92.4 µM
Records with an inconclusive call do not appear. Active and inactive are the calls of the source. The call rests on the fitted dose curve; in most records, active means well fitted cell-killing curve with a large enough effect in the repeat runs; inconclusive means weak or mixed curves; inactive means flat fitted curve, though single readings scatter.
Please state which outcome applies, choosing from 1.0 = active, 0.0 = inactive

# example entries with known answers
INSERT INTO measurements (compound, categorylabel) VALUES
  ('Nc1ccncc1', 0.0),
  ('Clc1nc(Cl)nc(Cl)n1', 0.0),
  ('Nc1ccc(Cl)c(Cl)c1', 0.0),
  ('Oc1cc(Cl)ccc1Oc1ccc(Cl)cc1Cl', 1.0),
  ('C#CCOS(=O)OC1CCCCC1Oc1ccc(C(C)(C)C)cc1 (centres undefined)', 0.0),
  ('CCCCCCOC(=O)c1ccccc1C(=O)OCCCCCC', 0.0),
  ('C=CCc1ccc(OC)cc1', 0.0),
  ('C=CCN(CC=C)C(=O)C(Cl)Cl', 0.0);

What outcome does the record of this test show for Cc1cccc(N)c1N ?
0.0

What outcome does the record of this test show for CCN(N=O)C(N)=O ?
0.0

What outcome does the record of this test show for O=[N+]([O-])c1ccc(O)c([N+](=O)[O-])c1 ?
0.0

* * *

- experiment: qHTS assay for small molecule disruptors of the mitochondrial membrane potential - cell viability (AID 720634); also: nearly all actives have a fitted effect of over 20% in size
- conditionInfo: HepG2 viability, ATP luminescence (CellTiter-Glo), 1 h; series mostly up to 83.2 µM
Inconclusive results are not listed. Calls of active or inactive are those of the source. Calls come from the whole dose curve.
Please state which outcome applies, choosing from yes (1) for active, no (0) for inactive

What outcome does the record of this test show for CCN(N=O)C(N)=O ?
no (0)

What outcome does the record of this test show for Nc1c(Cl)cc([N+](=O)[O-])cc1Cl ?
yes (1)

What outcome does the record of this test show for Cc1cccc(N)c1N ?
no (0)

* * *

- experiment: qHTS RealTime-Glo MT Cell Viability Assay in HEK293 cells - 8 hour (AID 1224887); also: nearly all actives have a fitted effect of over 50% in size
- conditionInfo: RealTime-Glo luminescence; series mostly up to 76.8 µM
Records with an inconclusive call do not appear. The source made the active and inactive calls. Calls come from the whole dose curve; as a rule, active = well fitted cell-killing curve with a large enough effect in the repeat runs; inconclusive = weak or mixed curves, or effect the other way; inactive = flat fitted curve, though single readings scatter.
Please state which outcome applies, choosing from active, inactive

# example entries with known answers
INSERT INTO assay_data (compound, categorylabel) VALUES
  ('C=CCc1ccc(OC)cc1', 'inactive'),
  ('COc1ccc(C=O)cc1', 'inactive'),
  ('CC(C)c1ccc(CO)cc1', 'inactive'),
  ('CCCCNC(=O)n1c(NC(=O)OC)nc2ccccc21', 'inactive'),
  ('CC(C)(OOC(C)(C)c1ccccc1)c1ccccc1', 'inactive');

What outcome does the record of this test show for O=C(CCl)c1ccccc1 ?
inactive

What outcome does the record of this test show for CCOC(=O)C(C)OC(=O)c1cc(Oc2ccc(C(F)(F)F)cc2Cl)ccc1[N+](=O)[O-] (configuration not stated) ?
active

* * *

- experiment: qHTS assay to identify small molecule agonists of H2AX - cell viability counter screen (AID 1224847); also: nearly all actives have a fitted effect of over 30% in size
- conditionInfo: CHO-K1 viability, CellTiter-Glo luminescence, 3 h; series mostly up to 154 µM
Inconclusive results are not listed. The source made the active and inactive calls. The call rests on the fitted dose curve.
Please state which outcome applies, choosing from true (active), false (inactive)

INSERT INTO measurements (molecule, categorylabel) VALUES
  ('Nc1cccnc1', 'false');

What outcome does the record of this test show for CCCCCCOC(=O)c1ccccc1C(=O)OCCCCCC ?
false

What outcome does the record of this test show for CC(C)Oc1cc(-n2nc(C(C)(C)C)oc2=O)c(Cl)cc1Cl ?
false

What outcome does the record of this test show for C#CCOS(=O)OC1CCCCC1Oc1ccc(C(C)(C)C)cc1 (stereo not given) ?
true

What outcome does the record of this test show for CCN(CC)C(=O)/C(Cl)=C(\C)OP(=O)(OC)OC ?
false

* * *

- experiment: Caspase-3/7 induction in CHO-K1 cells by small molecules, qHTS cell viability counter screen (AID 1346979); also: nearly all actives have a fitted effect of over 35% in size
- conditionInfo: CellTiter-Fluor fluorescence, 17 h; series mostly up to 92.4 µM
Results filed as inconclusive are left out. Calls of active or inactive are those of the source. Calls come from the whole dose curve; as a rule, active = well fitted cell-killing curve with a large enough effect in the repeat runs; inconclusive = weak or mixed curves, or effect the other way; inactive = no such curve, though single readings can be large or run the other way.
Please state which outcome applies, choosing from active, inactive

# example entries with known answers
INSERT INTO assay_data (substancesmiles, categorylabel) VALUES
  ('CCC(C)(c1ccc(O)cc1)c1ccc(O)cc1', 'active'),
  ('C=CC(=O)OCCO', 'active');

Now consider the entry below.
What outcome does the record of this test show for Nc1c(Cl)cc([N+](=O)[O-])cc1Cl ?
inactive

* * *

- target: Acetylcholinesterase (Homo sapiens)
- experiment: Acetylcholinesterase (AChE) small molecule antagonists: fluorescence cell-based qHTS assay (AID 1347398); also: nearly all actives have a fitted effect of over 50% in size
- conditionInfo: SH-SY5Y cells; AChE activity; series mostly up to 115 µM
- Description: National Center for Advancing Translational Sciences [NCATS] Division of Preclinical Innovation [DPI] U.S. Environmental Protection Agency [EPA] National Institutes of Environmental Health Sciences [NIEHS] National Toxicology Program [NTP] […] A homogenous cell-based assay using Amplitetrade mark Fluorimetric Acetylcholinesterase Assay Kit *Green Fluorescence* (AAT Bioquest, Sunnyvale, CA) was used to evaluate the chemicals in the Tox21 10K library that inhibit AChE activity. […]
Inconclusive results are not listed. Active and inactive are the calls of the source. Calls come from the whole dose curve.
readoutName: outcome

INSERT INTO results (compound, readoutname, readoutvalue) VALUES
  ('COC(=O)c1sccc1S(=O)(=O)NC(=O)Nc1nc(C)nc(OC)n1', 'outcome', 'inactive'),
  ('CCOc1cc(C=O)ccc1O', 'outcome', 'inactive'),
  ('O=P(O)(O)CCCl', 'outcome', 'inactive'),
  ('O=c1oc2ccccc2c(O)c1C(CC(O)c1ccc(-c2ccc(Br)cc2)cc1)c1ccccc1 (stereo not given)', 'outcome', 'inactive'),
  ('O=Cc1ccco1', 'outcome', 'inactive');

Endpoint output: outcome of O=C1C=CC(=O)C=C1 . Value?
inactive

Endpoint output: outcome of Oc1cc(Cl)c(Cl)cc1Cl . Value?
inactive

Endpoint output: outcome of O=C(O)C(F)(F)C(F)(F)C(F)(F)C(F)(F)C(F)(F)C(F)(F)C(F)(F)F . Value?
inactive

Endpoint output: outcome of O=C(Nc1ccc(Br)cc1)c1cc(Br)cc(Br)c1O . Value?
inactive

Endpoint output: outcome of O=C(NC(=O)c1c(F)cccc1F)Nc1ccc(Cl)cc1 . Value?
inactive
